# credit: patent US4916122A

test: in vitro; assay type: cell-based; conditions: monkey; Vero cells, FIG. 2a; read-out: concentration up to which there is relatively little toxicity to Vero cells
QUANTITY: MNTC

*Q* MNTC for [N-]=[N+]=N[C@H]1C[C@H](n2ccc(=O)[nH]c2=O)O[C@@H]1CO ?
*A* ~400 µM

----------
experiment: in vivo; type: in vivo, rhesus monkey; settings: rhesus monkey, in vivo; rhesus monkeys, oral dose of 920 mg
QUANTITY: AUC (µg·h/mL)
Give bare numbers, in µg·h/mL.

*Q* Would you kindly share the measured AUC for [N-]=[N+]=N[C@H]1C[C@H](n2ccc(=O)[nH]c2=O)O[C@@H]1CO ?
*A* 113
